# studySystem: 5-hydroxytryptamine receptor 2C (Homo sapiens)
# measurementNotes: Inhibition of serotonin 5-HT2C receptor at 1 uM by ligand displacement assay
Activity calls are given as the source filed them. The calls are words filed in the database; no cut-off is given here.
measureName: inhibition

| smilesEntry | testResult |
| --- | --- |
| CNc1nn2c(C)c(N(C)C)c(C)nc2c1S(=O)(=O)c1ccccc1 | inactive |
| CNc1nn2c(C)c(N)c(C)nc2c1S(=O)(=O)c1ccccc1 | inactive |
| CNc1nn2c(N)cc(C)nc2c1S(=O)(=O)c1ccccc1 | 50% |
| CNc1nn2c(C)cc(CN)nc2c1S(=O)(=O)c1ccccc1 | inactive |

---

# studySystem: UniProt P50406
# Sequence (P50406 whole entry): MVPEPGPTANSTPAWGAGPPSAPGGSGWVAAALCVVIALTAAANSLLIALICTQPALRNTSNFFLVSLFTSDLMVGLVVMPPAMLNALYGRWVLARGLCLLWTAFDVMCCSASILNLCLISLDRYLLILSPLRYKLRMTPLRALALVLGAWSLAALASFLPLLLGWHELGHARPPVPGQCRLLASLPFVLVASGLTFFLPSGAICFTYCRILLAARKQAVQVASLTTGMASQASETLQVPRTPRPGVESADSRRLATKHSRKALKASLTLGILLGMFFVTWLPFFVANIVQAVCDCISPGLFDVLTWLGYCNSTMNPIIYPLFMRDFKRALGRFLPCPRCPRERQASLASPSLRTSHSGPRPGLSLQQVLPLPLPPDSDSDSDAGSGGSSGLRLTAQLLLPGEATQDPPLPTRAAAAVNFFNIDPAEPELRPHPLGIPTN
# measurementNotes: Inhibition of human recombinant 5-HT6 receptor expressed in human HEK293 cells assessed as inhibition of serotonin-induced cAMP accumulation
# Assay type: functional, cell-based
# measurementSetup: read-out: pKi (converted)
measureName: log10 Ki (log10 of the value in nM)
Values reflect log10 of reported Ki (nM).

| smilesEntry | testResult |
| --- | --- |
| CNc1nn2c(CN)cc(C)nc2c1S(=O)(=O)c1ccccc1 | 0.27 |
| CNc1nn2c(C)c(NC(C)=O)c(C)nc2c1S(=O)(=O)c1ccccc1 | 0.67 |
| CNc1nn2c(N)cc(C)nc2c1S(=O)(=O)c1cccc(Cl)c1 | -0.66 |
| CNc1nn2c(CN(C)C)cc(C)nc2c1S(=O)(=O)c1ccccc1 | 0.26 |

Please turn your attention to the following entry.
Query string: For the compound CNc1nn2c(C)c(N)c(C)nc2c1S(=O)(=O)c1ccccc1 , what log10 Ki is on record?
Result string: -0.28
